Values compiled from patent US20110319611A1.

# Target desc: human neutrophil elastase (Homo sapiens, UniProt P08246)
# Construct: endogenous in cells; cell-free supernatant used
# Sequence (P08246 30-267): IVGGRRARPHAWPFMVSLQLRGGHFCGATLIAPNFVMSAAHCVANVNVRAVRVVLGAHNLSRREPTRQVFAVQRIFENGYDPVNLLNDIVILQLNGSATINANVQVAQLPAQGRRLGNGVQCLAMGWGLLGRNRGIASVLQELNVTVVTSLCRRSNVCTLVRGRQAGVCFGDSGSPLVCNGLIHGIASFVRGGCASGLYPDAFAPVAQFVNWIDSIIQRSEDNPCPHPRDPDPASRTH
# Assay protocol: Inhibition of NE activity in supernatant of activated neutrophils
# Condition summary: supernatant of FMLP/CB-activated human neutrophils containing NE; mean ± S.E.M. (n = 3)
# Text: The neutrophils obtained in the section of “3. […] In a control group, 100% DMSO was used to substitute the compound solution. Moreover, in the positive control group, PMSF was used to substitute the compound solution.

Compound	IC50 (µM)
O=S(=O)(F)Cc1ccccc1 [PMSF, phenylmethylsulfonyl fluoride]	95.2

====

# Target desc: human NE (Homo sapiens, UniProt P08246)
# Construct: USA
# Sequence (P08246 30-267): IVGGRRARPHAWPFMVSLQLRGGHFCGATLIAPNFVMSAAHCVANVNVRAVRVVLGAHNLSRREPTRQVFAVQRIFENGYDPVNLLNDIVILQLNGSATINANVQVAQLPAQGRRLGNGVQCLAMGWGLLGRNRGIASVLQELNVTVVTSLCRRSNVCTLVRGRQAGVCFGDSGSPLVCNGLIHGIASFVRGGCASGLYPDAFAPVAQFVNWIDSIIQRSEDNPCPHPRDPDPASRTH
# Assay protocol: Inhibition of commercially available pure neutrophil elastase
# Condition summary: 0.0075 U/ml human NE (Sigma), 96-well plate, 30 minutes, 405 nm
Reported metric: IC50 (µM)

Compound	Unit label	Quantitative readout
O=S(=O)(F)Cc1ccccc1 [PMSF, phenylmethylsulfonyl fluoride]	µM	52.2
